- Test system: PF3D7_0420300 AP2 domain 1 (GST-tagged)
- Assay details: gcPBM binding intensity (ln(normalized median fluorescence intensity)); higher = stronger DNA binding
Whole data set: some 25,000 sequences, median “ln(normalized median fluorescence intensity)” near 9.3, cut for the highest 2% near 10. The entries come from a sample that favours the highest values as a whole.
Endpoint name: gcPBM binding intensity (ln)
Enter a number only.

TACATAAATTAAAACACACACACACTAATAAAAAAA [CACACA_site8712] ... 10.1
ATAATATGAAATATAACACACATATATAAAAACATT [CACACA_site866] ... 9.72
TACATATATAAAAAAACACACACATATATATATATA [CACACA_site8315] ... 9.54

Query :: Requested read-out: gcPBM binding intensity (ln). Entry: TATATATGTAGACGTTGTACTTTTTTGTAAGTTTAA [XGTACX_site5638]
Result :: 9.13

Query :: Requested read-out: gcPBM binding intensity (ln). Entry: ATAATATGAAAACACACACACACACTAATAAAAAAA [CACACA_site8617]
Result :: 10.2

Query :: Requested read-out: gcPBM binding intensity (ln). Entry: AAAAAATCAAAACACACACACACACTAGAAAAAAAA [CACACA_site4909]
Result :: 10.3

Query :: Requested read-out: gcPBM binding intensity (ln). Entry: CAAATAAATATTAAAAGTACACACAGATACACTAAT [XGTACX_site3749]
Result :: 9.88

Query :: Requested read-out: gcPBM binding intensity (ln). Entry: ATATATATGAAACACACACACAAAAAAAAAAAAAAA [CACACA_site3647]
Result :: 9.69

Query :: Requested read-out: gcPBM binding intensity (ln). Entry: AAAAAATATATATTAACACACACACTAATAAAAAAA [CACACA_site8366]
Result :: 10

----------
Known gcPBM binding intensity (ln) of a selection of sequences
- System: PF3D7_0420300 AP2 domain 1 (GST-tagged)
- Assay details: gcPBM binding intensity (ln(normalized median fluorescence intensity)); higher = stronger DNA binding
The full ranking holds about 25,000 sequences; the median of “ln(normalized median fluorescence intensity)” is about 9.3, and the highest 2% start at about 10. This excerpt belongs to a sample that is enriched for the highest values.
Enter a number only.

Some sequences with known gcPBM binding intensity (ln) results, for comparison:
ACAATAAACATATATACACACACAAAAAAAAAAACA [CACACA_site8033] ... 10.3
CACACGCACGGACACACACACAAAAAAAAAAAGAAA [CACACA_site6378] ... 9.7
ATAAATTCATTATATTGTACAAACAAATGAAAAAAA [XGTACX_site8304] ... 9.09
ATCAAGCACGGACACACACACACACCCAGACCCCCA [CACACA_site4360] ... 10.1

Now look at this one.
Query :: Requested read-out: gcPBM binding intensity (ln). Entry: CAAAAGGATATGCACACACACACACGGATATTTATA [CACACA_site7099]
Result :: 10.2

----------
Known gcPBM binding intensity (ln) of a selection of sequences
- Test system: PF3D7_0420300 AP2 domain 1 (GST-tagged)
- Assay details: gcPBM binding intensity (ln(normalized median fluorescence intensity)); higher = stronger DNA binding
In all, about 25,000 sequences were measured (“ln(normalized median fluorescence intensity)”: median about 9.3, highest 2% from about 10 on). This is one part of a sample in which the highest values are shown more often than they occur.
Enter a number only.

ATTTCATACAGACACACACACAAACAAACATATATA [CACACA_site979] ... 10.1
CCAAACAAAAAAAAAAGTACATAAAACACCTATTTG [XGTACX_site5645] ... 9.46
CTTAAAGGGAAAAATACACACATATAAATATTATGT [CACACA_site2225] ... 9.47

Query :: Requested read-out: gcPBM binding intensity (ln). Entry: TAAAATATAATAAAATGTACACGCATGCAATAGAAT [XGTACX_site7434]
Result :: 9.65

Query :: Requested read-out: gcPBM binding intensity (ln). Entry: ATGTACCTATTTCATACACACACACCCACAAACAAA [CACACA_site8232]
Result :: 10
